Cited source for all entries: patent US20240393292A1

# System: IgE antibodies from patients
# Assay method text: Wheat epitope mapping (2): overlapping 10-amino-acid peptide fragments shifted by one amino acid
# Format: binding, human
# Experimental setup: serum of patient P22 (WDEIA); sequence without X
Experimental endpoint: Epitope sequence binding to IgE antibody, rank of the sequence

Which value of Epitope sequence binding to IgE antibody, rank of the sequence has been reported for 1195 (QFPPQQPYPQ; REGION 1..10: note = epitope) [compound 1195] in the records?
Key

Which value of Epitope sequence binding to IgE antibody, rank of the sequence has been reported for 1194 (QQQQFPPQ; REGION 1..8: note = epitope) [compound 1194] in the records?
Key

Which value of Epitope sequence binding to IgE antibody, rank of the sequence has been reported for 1333 (INVEN; REGION 1..5: note = epitope) [compound 1333] in the records?
Key
